Recorded values, source patent US10065948B2.

This section lists IC50 readings for Histone Deacetylase 4 (HDAC4) catalytic domain (Homo sapiens (Human)).
The answer is to be given in µM; state only the numeric part.

Some solved cases for reference:
| molecule | IC50 (µM) |
| --- | --- |
| Cc1c(F)cccc1[C@]1(C(=O)NO)Cc2cnn(-c3ccccc3F)c2C1 | 0.017 |
| Cc1c(F)cccc1C1(C(=O)NO)CCc2nc(-c3ccccc3)ncc2C1 (stereo not drawn) | 3.2 |

Q) For Histone Deacetylase 4 (HDAC4) catalytic domain (Homo sapiens (Human)), provide IC50 of Cc1c(F)cccc1[C@]1(C(=O)NO)Cc2cn(-c3ncccc3F)nc2C1 please.
A) 0.104

Q) For Histone Deacetylase 4 (HDAC4) catalytic domain (Homo sapiens (Human)), provide IC50 of Cc1c(F)cccc1C1(C(=O)NO)Cc2ccccc2C1 please.
A) 0.11

Q) For Histone Deacetylase 4 (HDAC4) catalytic domain (Homo sapiens (Human)), provide IC50 of Cc1c(F)cccc1[C@@]1(C(=O)NO)Cc2nc(-c3ccc(F)cn3)sc2C1 please.
A) 0.051

Q) For Histone Deacetylase 4 (HDAC4) catalytic domain (Homo sapiens (Human)), provide IC50 of Cc1c(F)cccc1C1(C(=O)NO)Cc2nc(-c3ccccc3F)sc2C1 (single isomer, unassigned) please.
A) 0.193

Q) For Histone Deacetylase 4 (HDAC4) catalytic domain (Homo sapiens (Human)), provide IC50 of Cc1c(F)cccc1C1(C(=O)NO)CCc2nn(CC(F)(F)F)c(C3CC3)c2C1 (stereo not drawn) please.
A) 4.4

Q) For Histone Deacetylase 4 (HDAC4) catalytic domain (Homo sapiens (Human)), provide IC50 of Cc1c(F)cccc1[C@]1(C(=O)NO)CCc2nc(-c3ccccc3Cl)ncc21 please.
A) 0.102

Q) For Histone Deacetylase 4 (HDAC4) catalytic domain (Homo sapiens (Human)), provide IC50 of Cc1c(F)cccc1C1(C(=O)NO)Cc2nc(-c3cnn(C)c3C)sc2C1 (single isomer, unassigned) please.
A) 0.068
